molecular target: PI3K-α (PIK3CA) H1047R mutant, p110α/p85α complex (Homo sapiens, UniProt P42336, H1047R); construct: Recombinant, catalytically active human full length PIK3KA Wild-type and H1047R mutant; 6×His (N); purchased EMD Millipore Sigma 14-792M; assay: PI3K-alpha kinase (PIK3CA) biochemical activity, ADP-Glo, H1047R mutant; details: Soy PI lipid substrate
Sequence (P42336 whole entry H1047R): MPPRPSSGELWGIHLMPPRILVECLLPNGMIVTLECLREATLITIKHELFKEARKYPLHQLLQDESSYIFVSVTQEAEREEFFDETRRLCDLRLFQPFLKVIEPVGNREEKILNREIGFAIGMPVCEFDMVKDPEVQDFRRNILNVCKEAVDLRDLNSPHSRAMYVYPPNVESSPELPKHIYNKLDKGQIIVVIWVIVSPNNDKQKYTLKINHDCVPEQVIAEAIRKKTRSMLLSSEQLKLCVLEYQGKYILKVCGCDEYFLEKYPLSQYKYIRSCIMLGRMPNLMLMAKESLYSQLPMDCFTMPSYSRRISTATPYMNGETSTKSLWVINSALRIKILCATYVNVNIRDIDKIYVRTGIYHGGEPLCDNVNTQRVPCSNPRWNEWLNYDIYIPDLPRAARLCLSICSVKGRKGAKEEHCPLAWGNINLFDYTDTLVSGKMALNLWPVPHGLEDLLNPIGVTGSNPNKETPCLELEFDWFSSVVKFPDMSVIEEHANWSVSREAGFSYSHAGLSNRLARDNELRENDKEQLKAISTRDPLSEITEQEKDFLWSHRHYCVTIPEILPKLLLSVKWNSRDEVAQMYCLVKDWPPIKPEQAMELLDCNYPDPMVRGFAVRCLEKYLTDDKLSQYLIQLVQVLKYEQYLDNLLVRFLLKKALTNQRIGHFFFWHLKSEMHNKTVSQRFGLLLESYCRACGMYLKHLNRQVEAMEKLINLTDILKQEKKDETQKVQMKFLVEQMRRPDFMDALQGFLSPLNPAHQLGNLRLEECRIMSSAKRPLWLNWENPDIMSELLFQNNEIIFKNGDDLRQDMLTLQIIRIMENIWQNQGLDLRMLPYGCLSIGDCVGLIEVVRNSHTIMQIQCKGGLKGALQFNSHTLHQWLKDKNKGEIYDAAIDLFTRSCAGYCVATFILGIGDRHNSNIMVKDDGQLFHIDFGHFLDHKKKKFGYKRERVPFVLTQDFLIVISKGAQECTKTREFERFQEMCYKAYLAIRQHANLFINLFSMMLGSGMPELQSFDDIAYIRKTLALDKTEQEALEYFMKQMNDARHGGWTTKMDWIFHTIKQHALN
Sequence (P27986 whole entry partner): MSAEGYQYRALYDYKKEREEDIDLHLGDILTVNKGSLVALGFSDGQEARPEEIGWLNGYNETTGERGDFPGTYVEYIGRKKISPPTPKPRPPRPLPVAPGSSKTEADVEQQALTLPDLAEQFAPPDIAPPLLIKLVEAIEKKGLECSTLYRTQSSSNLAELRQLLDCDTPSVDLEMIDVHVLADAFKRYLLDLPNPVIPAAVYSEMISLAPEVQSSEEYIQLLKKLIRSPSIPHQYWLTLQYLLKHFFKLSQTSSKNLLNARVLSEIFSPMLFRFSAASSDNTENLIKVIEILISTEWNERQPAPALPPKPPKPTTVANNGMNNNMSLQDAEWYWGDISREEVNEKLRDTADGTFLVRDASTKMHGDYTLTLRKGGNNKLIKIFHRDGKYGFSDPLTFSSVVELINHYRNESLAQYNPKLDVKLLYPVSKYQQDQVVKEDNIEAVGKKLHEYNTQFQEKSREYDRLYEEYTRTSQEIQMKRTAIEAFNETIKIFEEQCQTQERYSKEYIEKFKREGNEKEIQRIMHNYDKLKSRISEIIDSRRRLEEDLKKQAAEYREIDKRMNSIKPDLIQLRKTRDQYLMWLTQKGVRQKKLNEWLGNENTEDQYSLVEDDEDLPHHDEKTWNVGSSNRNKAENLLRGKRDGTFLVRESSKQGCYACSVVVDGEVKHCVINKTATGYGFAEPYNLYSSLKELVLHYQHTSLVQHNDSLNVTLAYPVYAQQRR
Listed next: entries and their corresponding IC50.

// below: answered compounds
                                   compound  value_kind  observed_result
0  Cc1cc([C@@H](C)Nc2ccc(Cl)nc2C(=O)O)c2oc(-c3cc4cnccc4o3)c(C)c(=O)c2c1 [Example 214]        IC50         < 500 nM
1  Cc1cc(C(C)Nc2ccc(Cl)nc2C(=O)O)c2oc(-c3ccc4cc[nH]c4n3)cc(=O)c2c1 (single isomer, unassigned) [Example 216]        IC50  1000 to 5000 nM
2  Cc1cc(C(C)Nc2ccccc2C(=O)O)c2oc(-c3cc(F)c4nn(C)cc4c3)cc(=O)c2c1 (single isomer, unassigned) [Example 97]        IC50         < 500 nM
3  Cc1cc(C(C)Nc2ccccc2C(=O)O)c2oc(-c3ccn4cc(C)nc4c3)cc(=O)c2c1 (single isomer, unassigned) [Example 3]        IC50         < 500 nM
4  Cc1cc([C@@H](C)Nc2cccnc2C(=O)O)c2oc(-c3ccc4nn(C)cc4c3)cc(=O)c2c1 [Example 226]        IC50   500 to 1000 nM
5  Cc1cc(C(C)Nc2ccccc2C(=O)O)c2oc(-n3ncc4cc(F)ccc43)cc(=O)c2c1 (single isomer, unassigned) [Example 89]        IC50         < 500 nM
6  Cc1cc(C(C)Nc2ccc(Cl)nc2C(=O)O)c2oc(-c3ccc4c(cnn4C)c3)cc(=O)c2c1 (single isomer, unassigned) [Example 217]        IC50  1000 to 5000 nM
7  Cc1cc([C@@H](C)Nc2cccnc2C(=O)O)c2oc(-c3nn(C)c4ccccc34)c(C)c(=O)c2c1 [Example 205]        IC50  1000 to 5000 nM

INPUT: Request - read-out IC50 | tested on PI3K-α (PIK3CA) H1047R mutant, p110α/p85α complex (Homo sapiens, UniProt P42336, H1047R) | compound Cc1cn2cc(-c3cc(=O)c4cc(F)cc(C(C)Nc5ccccc5C(=O)O)c4o3)ccc2n1 (single isomer, unassigned) [Example 51]
OUTPUT: < 500 nM

INPUT: # get_value(readout= IC50, system= PI3K-α (PIK3CA) H1047R mutant, p110α/p85α complex (Homo sapiens, UniProt P42336, H1047R)) for CC(Nc1ccc(Cl)nc1C(=O)O)c1cc(C(F)(F)F)cc2c(=O)cc(-c3cc(Cl)c4nn(C)cc4c3)oc12 (single isomer, unassigned) [Example 194]
OUTPUT: 500 to 1000 nM

INPUT: API: value(readout= IC50, system= PI3K-α (PIK3CA) H1047R mutant, p110α/p85α complex (Homo sapiens, UniProt P42336, H1047R), query= Cc1cc(C(C)Nc2ccccc2C(=O)O)c2oc(-c3cn(C)c4ccccc34)c(C)c(=O)c2c1 (single isomer, unassigned) [Example 140] )
OUTPUT: < 500 nM

INPUT: Could you share what IC50 was measured for Cc1cc(C(C)Nc2ccccc2C(=O)O)c2oc(-c3ccc4nc(C)cn4n3)c(C)c(=O)c2c1 (single isomer, unassigned) [Example 142] , tested on PI3K-α (PIK3CA) H1047R mutant, p110α/p85α complex (Homo sapiens, UniProt P42336, H1047R)?
OUTPUT: < 500 nM

INPUT: Hello, I am looking for reported IC50 with PI3K-α (PIK3CA) H1047R mutant, p110α/p85α complex (Homo sapiens, UniProt P42336, H1047R) for Cc1cc(C(C)Nc2ccc(Cl)nc2C(=O)O)c2oc(-c3ccc4nc(C)cn4c3)c(C)c(=O)c2c1 (single isomer, unassigned) [Example 178] . Could you help?
OUTPUT: < 500 nM

====

// values below are reported IC50
molecular target: PI3K-α (PIK3CA) wild-type (WT), p110α/p85α complex (Homo sapiens, UniProt P42336); construct: Recombinant, catalytically active human full length PIK3KA Wild-type and H1047R mutant; 6×His (N); purchased EMD Millipore Sigma 14-602M; experiment: PI3K-alpha kinase (PIK3CA) biochemical activity, ADP-Glo, wild-type; details: PIP2diC8 lipid substrate (footnote 1)
Sequence (P42336 whole entry): as the sequence (P42336 whole entry H1047R) above, with R1047H counted along it
Sequence (P27986 whole entry partner): as the sequence (P27986 whole entry partner) above

The examples below pair each entry with its known result.
In [3]: df
Out[3]:
                                   compound  observed_result
0  Cc1cc(C(C)Nc2ccccc2C(=O)O)c2oc(-c3ccc4c(c3)OCO4)cc(=O)c2c1 (single isomer, unassigned) [Example 46]         < 500 nM
1  Cc1cc(C(C)Nc2ccccc2C(=O)O)c2oc(-c3ccc4[nH]c(C(F)(F)F)cc4c3)cc(=O)c2c1 (stereo not shown) [Example 11]   500 to 1000 nM
2  Cc1cc(C(C)Nc2ccccc2C(=O)O)c2oc(-c3cnc4nn(C)cc4c3)cc(=O)c2c1 (stereo not shown) [Example 9]   500 to 1000 nM

Consider the additional compound presented here.
INPUT: Any idea what IC50 came out for Cc1cc(C(C)Nc2ccccc2C(=O)O)c2oc(-c3cc4ccncc4o3)cc(=O)c2c1 (stereo not shown) [Example 7] on PI3K-α (PIK3CA) wild-type (WT), p110α/p85α complex (Homo sapiens, UniProt P42336)?
OUTPUT: < 500 nM

====

Overview of recorded IC50 for various compounds
biological target: PI3K-α (PIK3CA) H1047R mutant, p110α/p85α complex (Homo sapiens, UniProt P42336, H1047R); construct: Recombinant, catalytically active human full length PIK3KA Wild-type and H1047R mutant; 6×His (N); purchased EMD Millipore Sigma 14-792M; experiment: PI3K-alpha kinase (PIK3CA) biochemical activity, ADP-Glo, H1047R mutant; details: Soy PI lipid substrate

>>> df
                                   compound  observed_result
0  Cc1cc([C@@H](C)Nc2ccc(Cl)nc2C(=O)O)c2oc(-c3nc4ccccc4o3)c(C)c(=O)c2c1         < 0.5 µM

INPUT: Query: IC50; subject: Cc1cc(C(C)Nc2ccccc2C(=O)O)c2oc(-c3ccc4c(C)nn(C)c4c3)cc(=O)c2c1 (single isomer, unassigned)
OUTPUT: < 0.5 µM

INPUT: What IC50 value was documented for this compound, `Cc1cc([C@@H](C)Nc2ccccc2C(=O)O)c2oc(-c3ccc4nc(C)oc4c3)c(C)c(=O)c2c1` ?
OUTPUT: < 0.5 µM

INPUT: Which value of IC50 has been reported for Cc1cc(C(C)Nc2ccc(Cl)nc2C(=O)O)c2oc(-c3ccc4c(cnn4C)c3)cc(=O)c2c1 (single isomer, unassigned) [Example 218] in the records?
OUTPUT: < 0.5 µM

====

target: PI3K-α (PIK3CA) wild-type (WT), p110α/p85α complex (Homo sapiens, UniProt P42336); construct: Recombinant, catalytically active human full length PIK3KA Wild-type and H1047R mutant; 6×His (N); purchased EMD Millipore Sigma 14-602M; test: PI3K-alpha kinase (PIK3CA) biochemical activity, ADP-Glo, wild-type; conditions: Soy PI lipid substrate
pIC50: −log10 of the molar value.
Measured pIC50 values are reported for all entries that follow.

Examples from the recorded data:
>>> print(df.to_string())
                                   compound  value_kind  observed_result
0  CC(Nc1ccccc1C(=O)O)c1cc(F)cc2c(=O)cc(-c3cc4ccccc4[nH]3)oc12 (single isomer, unassigned)       pIC50     6.00 to 6.30
1  Cc1cc(C(C)Nc2ccccc2C(=O)O)c2oc(-c3ccn4c(C)nnc4c3)cc(=O)c2c1 (single isomer, unassigned)       pIC50     5.00 to 5.30
2  Cc1cc(C(C)Nc2ccccc2C(=O)O)c2oc(-c3ccc4c(cnn4C)n3)cc(=O)c2c1 (single isomer, unassigned) [Example 53]       pIC50     5.30 to 6.00
3  CC(Nc1cccnc1C(=O)O)c1cc(C(F)(F)F)cc2c(=O)cc(-c3cc4ccccc4[nH]3)oc12 (stereo not drawn)       pIC50           < 5.00
4  Cc1cc([C@@H](C)Nc2cccc(F)c2C(=O)O)c2oc(-c3ccc4nc(C)sc4n3)cc(=O)c2c1       pIC50     5.30 to 6.00

Lab note: next compound to report on.
INPUT: Requested read-out pIC50, target or system PI3K-α (PIK3CA) wild-type (WT), p110α/p85α complex (Homo sapiens, UniProt P42336), entry Cc1cc(C(C)Nc2ccccc2C(=O)O)c2oc(-c3cnn4ccccc34)cc(=O)c2c1 (single isomer, unassigned) [Example 125]
OUTPUT: 5.30 to 6.00
